B1: SEC22B (parent)
chain: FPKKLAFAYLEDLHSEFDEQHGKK

variants of: B1; assay: protein stability index of a GFP-peptide fusion (GPS, HEK-293T) (PSI 1-6); higher = more stable; settings: c terminus: a fixed tail appended;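 note: lentivirally expressed fusions sorted by FACS into six bins by GFP to DsRed ratio, PSI derived from sequencing read proportions per bin multiplied by bin number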
MEASURE: protein stability index
Answers are plain numbers.

Worked set:
INSERT INTO measurements (alteration, measure, obs_value) VALUES
  ('Q20P', 'protein stability index', 2.4),
  ('A8M', 'protein stability index', 2.68),
  ('D18H', 'protein stability index', 2.38),
  ('D18P', 'protein stability index', 2.47);

# batch: return protein stability index for each of the 7 variants below
1. Q20T
2. L10A
3. L5A
4. K23F
5. P2M
6. A6P
7. Q20Y

2.44
2.47
2.15
2.07
3.04
3.06
2.47

Look at each variant and report its protein stability index.
1. K4Y
2. F1N
3. E11F
4. E11W
5. K4F
6. Q20R
7. H21L
8. F7E

1: 1.95; 2: 4.88; 3: 1.97; 4: 2.02; 5: 1.97; 6: 2.67; 7: 2.25; 8: 4
